System: HCV GT1a(H77) replicon
Assay: HCV replicon luciferase reporter assay, genotype 1a
Assay type: cell-based, HCV genotype 1a
Conditions: Hepatitis C virus, 72 h, HUH-7 cells, Renilla luciferase, 3 days incubation, read-out: LE_1a (EC50)
endpointName: pEC50
Please report pEC50 as the negative decimal logarithm of the molar concentration, giving only the number.

Below, each entry is followed by its recorded pEC50 result.
CC(C)Oc1ccc(-c2cc(O[C@@H]3C[C@H]4C(=O)N[C@]5(C(=O)NS(=O)(=O)C6(C)CC6)C[C@H]5/C=C\CC[C@@H](C)C[C@@H](C)[C@H](NC(=O)OC(C)(C)C(F)(F)F)C(=O)N4C3)cc(-c3cccnc3)n2)cc1 [Compound 1005]	8.83
C[C@@H]1CC/C=C\[C@@H]2C[C@@]2(C(=O)NS(=O)(=O)C2(C)CC2)NC(=O)[C@@H]2C[C@@H](Oc3cc(-c4nccs4)nc(-c4nccs4)c3)CN2C(=O)[C@@H](NC(=O)OC(C)(C)C(F)(F)F)[C@H](C)C1 [Compound 1023]	9.34
CC[C@@H]1C[C@H](C)CC/C=C\[C@@H]2C[C@@]2(C(=O)NS(=O)(=O)C2CC2)NC(=O)[C@@H]2C[C@@H](Oc3ccc(-c4nccs4)cn3)CN2C(=O)[C@H]1NC(=O)OC(C)(C)C(F)(F)F [Compound 1063]	7.78
CC(C)Oc1ccc(-c2cc(O[C@@H]3C[C@H]4C(=O)N[C@]5(C(=O)NS(=O)(=O)C6(C)CC6)C[C@H]5/C=C\CC[C@H](C)C[C@@H](C)[C@H](NC(=O)OC(C)(C)C(F)(F)F)C(=O)N4C3)cc(-c3cnccn3)n2)cc1 [Compound 1002]	7.23

Now for the compound whose pEC50 we want.
For the compound CC(C)Oc1ccc(-c2cc(O[C@@H]3C[C@H]4C(=O)N[C@]5(C(=O)NS(=O)(=O)C6(C)CC6)C[C@H]5/C=C\CC[C@@H](C)C[C@@H](C)[C@H](NC(=O)OC5(C(F)(F)F)CCCOC5)C(=O)N4C3)cc(-c3cncs3)n2)cc1 (some centres unmarked) [Compound 1017] , what pEC50 is on record? 9.02
